I'd be grateful if you could share measured EC50 for these entries.
tgt: DLL4 (human, UniProt Q9NR61)
Sequence (Q9NR61 27-524): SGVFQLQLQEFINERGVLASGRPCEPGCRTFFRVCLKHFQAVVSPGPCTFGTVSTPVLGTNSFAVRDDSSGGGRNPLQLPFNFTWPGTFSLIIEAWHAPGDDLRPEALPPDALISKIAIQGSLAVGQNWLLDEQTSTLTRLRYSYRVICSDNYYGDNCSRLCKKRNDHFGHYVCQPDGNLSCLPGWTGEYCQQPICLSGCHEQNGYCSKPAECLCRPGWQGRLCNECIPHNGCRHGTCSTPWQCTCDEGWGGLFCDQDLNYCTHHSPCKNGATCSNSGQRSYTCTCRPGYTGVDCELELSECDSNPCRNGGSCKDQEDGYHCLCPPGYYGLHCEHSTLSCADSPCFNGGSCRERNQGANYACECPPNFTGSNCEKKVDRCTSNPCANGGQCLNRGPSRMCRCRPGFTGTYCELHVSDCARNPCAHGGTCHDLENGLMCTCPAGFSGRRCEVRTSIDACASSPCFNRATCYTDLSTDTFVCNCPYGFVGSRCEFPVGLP
method: ELISA
Give just the numeric value; nM need not be written.

Which measured EC50 value corresponds to DVD443 DLL4 arm (antibody, V domains shown, DVD-Ig outer) VH: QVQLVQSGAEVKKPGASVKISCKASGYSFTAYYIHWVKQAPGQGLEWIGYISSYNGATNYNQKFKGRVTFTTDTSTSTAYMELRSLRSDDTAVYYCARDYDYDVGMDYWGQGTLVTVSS VL: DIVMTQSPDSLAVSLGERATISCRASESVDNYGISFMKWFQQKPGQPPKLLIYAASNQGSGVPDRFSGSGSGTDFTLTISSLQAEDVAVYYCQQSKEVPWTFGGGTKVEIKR ?
0.2

Which measured EC50 value corresponds to DVD509 DLL4 arm (antibody, V domains shown, DVD-Ig outer) VH: EVQLQQSGPELVKPGASVKMSCKASGYTFTSYVINWVKQKPGQGLEWIGLINPYNDGTKYNEKFKVKATLTSDKSSSTAYMELSSLTSEDSAVYYCASYYYGSRYYFDYWGQGTTLTVSS VL: DIQMTQSSSYLSVSLGGRVTITCKASDHINNWLAWYQQKPGNAPRLLISGATSLETGVPSRFSGSGSGKDYTLSITSLQTEDVATYYCQQYWSIPLTFGAGTKLELKR ?
0.21

Which measured EC50 value corresponds to DVD531 DLL4 arm (antibody, V domains shown, DVD-Ig outer) VH: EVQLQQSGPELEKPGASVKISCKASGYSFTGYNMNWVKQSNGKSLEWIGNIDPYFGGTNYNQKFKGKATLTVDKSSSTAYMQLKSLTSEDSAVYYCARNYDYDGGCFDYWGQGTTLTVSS VL: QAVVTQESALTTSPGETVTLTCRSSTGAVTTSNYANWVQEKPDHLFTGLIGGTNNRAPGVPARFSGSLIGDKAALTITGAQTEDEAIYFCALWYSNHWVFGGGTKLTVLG ?
0.57
